target: MDR1 (ABCB1, P-glycoprotein) (Rattus norvegicus, UniProt P43245); experiment: Substrate activity at rat MDR1 expressed in LLC-PK1 cells assessed as efflux ratio of permeability across basolateral to apical over apical to basolateral side at 5 uM; type: ADME, cell-based
Sequence (P43245 whole entry): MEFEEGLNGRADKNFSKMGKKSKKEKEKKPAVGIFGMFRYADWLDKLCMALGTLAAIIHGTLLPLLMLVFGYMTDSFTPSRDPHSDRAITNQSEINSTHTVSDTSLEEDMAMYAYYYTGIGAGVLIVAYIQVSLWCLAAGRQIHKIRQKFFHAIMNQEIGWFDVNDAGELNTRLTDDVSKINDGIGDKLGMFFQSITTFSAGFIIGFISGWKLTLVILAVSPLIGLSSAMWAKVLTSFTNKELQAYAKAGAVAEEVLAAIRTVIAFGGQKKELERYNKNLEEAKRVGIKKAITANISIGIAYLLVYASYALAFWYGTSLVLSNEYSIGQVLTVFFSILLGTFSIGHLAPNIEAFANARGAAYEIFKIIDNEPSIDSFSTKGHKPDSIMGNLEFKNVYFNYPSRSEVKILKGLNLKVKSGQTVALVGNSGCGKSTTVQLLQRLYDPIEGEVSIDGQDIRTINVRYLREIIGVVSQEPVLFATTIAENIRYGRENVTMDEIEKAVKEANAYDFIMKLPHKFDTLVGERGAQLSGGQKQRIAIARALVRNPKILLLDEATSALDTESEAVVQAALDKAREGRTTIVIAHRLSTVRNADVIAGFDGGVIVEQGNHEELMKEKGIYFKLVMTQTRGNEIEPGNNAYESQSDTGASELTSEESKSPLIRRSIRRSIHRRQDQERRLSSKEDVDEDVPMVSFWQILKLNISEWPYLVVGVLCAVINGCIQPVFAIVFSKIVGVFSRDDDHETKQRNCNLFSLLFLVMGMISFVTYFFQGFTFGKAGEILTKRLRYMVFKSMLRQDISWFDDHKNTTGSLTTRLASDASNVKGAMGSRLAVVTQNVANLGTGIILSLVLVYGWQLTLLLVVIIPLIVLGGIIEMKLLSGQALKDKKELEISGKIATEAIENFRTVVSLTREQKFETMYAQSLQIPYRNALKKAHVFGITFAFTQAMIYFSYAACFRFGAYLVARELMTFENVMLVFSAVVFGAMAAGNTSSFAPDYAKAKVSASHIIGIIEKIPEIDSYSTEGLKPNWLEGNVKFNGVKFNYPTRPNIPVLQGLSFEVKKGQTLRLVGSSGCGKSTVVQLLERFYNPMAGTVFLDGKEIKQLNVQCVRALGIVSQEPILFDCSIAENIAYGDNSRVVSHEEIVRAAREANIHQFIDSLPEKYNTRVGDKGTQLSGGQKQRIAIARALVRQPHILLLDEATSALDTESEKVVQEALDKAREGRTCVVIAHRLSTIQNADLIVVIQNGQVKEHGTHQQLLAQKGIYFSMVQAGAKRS
Quantity Measured: efflux ratio at 5 µM

{"Molecule": "Cn1cc(-c2cnc3c(-c4csc(C(=O)N[C@@H]5CCCC[C@@H]5N)c4)cnn3c2)cn1 (racemic)", "Reported Measurement": 54}

For reference, reported efflux ratio at 5 µM for `Cn1cc(-c2cnc3c(-c4csc(C(=O)NCC(F)(F)F)c4)cnn3c2)cn1` stands at 1.9

----------
What IC50 was measured for each of the following?
target: Serine/threonine-protein kinase Sgk1 (Homo sapiens, UniProt O00141); test: Inhibition of recombinant human GST-tagged SGK catalytic domain expressed in baculovirus expression system by Z'-LYTE assay
Sequence (O00141 whole entry, the tested form may be a part): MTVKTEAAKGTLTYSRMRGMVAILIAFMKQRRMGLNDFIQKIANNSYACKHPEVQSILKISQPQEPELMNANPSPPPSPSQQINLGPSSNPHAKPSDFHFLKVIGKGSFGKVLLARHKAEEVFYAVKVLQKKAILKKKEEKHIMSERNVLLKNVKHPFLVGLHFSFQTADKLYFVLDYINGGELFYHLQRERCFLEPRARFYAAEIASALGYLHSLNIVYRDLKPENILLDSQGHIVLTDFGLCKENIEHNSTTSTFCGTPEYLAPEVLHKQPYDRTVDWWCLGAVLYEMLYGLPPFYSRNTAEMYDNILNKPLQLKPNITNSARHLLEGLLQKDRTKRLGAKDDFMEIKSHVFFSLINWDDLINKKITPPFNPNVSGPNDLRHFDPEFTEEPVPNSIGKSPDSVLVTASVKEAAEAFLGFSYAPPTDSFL
Give bare numbers, in µM.

Consider the following illustrative entries.
{"Molecule": "Cn1cc(-c2cnc3c(-c4csc(C(=O)NCC(F)(F)F)c4)cnn3c2)cn1", "Quantity Measured": "IC50", "Reported Measurement": 0.063}
{"Molecule": "Cn1cc(-c2cnc3c(-c4csc(C(=O)N[C@@H]5CCCC[C@@H]5N)c4)cnn3c2)cn1 (racemic)", "Quantity Measured": "IC50", "Reported Measurement": 0.2}
{"Molecule": "Cc1sc(C(=O)N[C@@H]2[C@H](N)CCCC2(F)F)cc1-c1cnn2cc(Cl)cnc12", "Quantity Measured": "IC50", "Reported Measurement": 0.81}

For reference, reported IC50 for `O=C(NCC(F)(F)F)c1cc(-c2cnn3cc(-c4ccc(OCCN5CCCCC5)cc4)cnc23)cs1` stands at 0.027
